Assay: Clearance in Beagle dog at 4 mg/kg,iv measured upto 24 hrs
Assay type: ADME, organism-based, Canis lupus familiaris
Details: in vivo
observable: clearance (mL/min/kg)
Numeric only. Scale: mL/min/kg

Inquiry: I have this molecule here, CC(=O)O[C@@]12CO[C@@H]1C[C@H](O)[C@@]1(C)C(=O)[C@H](O)C3=C(C)[C@@H](OC(=O)[C@H](OC(=O)CCC(=O)NCCCC[C@H](NC(=O)CC[C@@H](NC(=O)[C@H](C)NC(=O)/C=C/c4ccc(F)cc4Cl)C(N)=O)C(=O)O)[C@@H](NC(=O)OC(C)(C)C)c4ccccc4)C[C@@](O)([C@@H](OC(=O)c4ccccc4)[C@H]21)C3(C)C , and I need its recorded clearance.
Reply text: 4.28

* * *

Experiment: Clearance in female rat at 8 mg/kg,iv measured upto 24 hrs
Assay type: ADME, organism-based
Details: in vivo
observable: clearance (mL/min/kg)
Numeric only. Scale: mL/min/kg

Inquiry: I have this molecule here, CC(=O)O[C@@]12CO[C@@H]1C[C@H](O)[C@@]1(C)C(=O)[C@H](O)C3=C(C)[C@@H](OC(=O)[C@H](OC(=O)CCC(=O)NCCCC[C@H](NC(=O)CC[C@@H](NC(=O)[C@H](C)NC(=O)/C=C/c4ccc(F)cc4Cl)C(N)=O)C(=O)O)[C@@H](NC(=O)OC(C)(C)C)c4ccccc4)C[C@@](O)([C@@H](OC(=O)c4ccccc4)[C@H]21)C3(C)C , and I need its recorded clearance.
Reply text: 3.39

* * *

Experiment: AUC (0-t) in mouse plasma implanted with mouse 4T1 cells at 10 mg/kg,iv measured upto 72 hrs
Format: ADME, organism-based
Parameters: dose 10 mg/kg, time < 72 hrs, route iv
observable: AUC(0-t) at 72 h (µM·h)
Numeric only. Scale: µM·h

Inquiry: I have this compound here, CC(=O)O[C@@]12CO[C@@H]1C[C@H](O)[C@@]1(C)C(=O)[C@H](O)C3=C(C)[C@@H](OC(=O)[C@H](OC(=O)CCC(=O)NCCCC[C@H](NC(=O)CC[C@@H](NC(=O)[C@H](C)NC(=O)/C=C/c4ccc(F)cc4Cl)C(N)=O)C(=O)O)[C@@H](NC(=O)OC(C)(C)C)c4ccccc4)C[C@@](O)([C@@H](OC(=O)c4ccccc4)[C@H]21)C3(C)C , and I need its recorded AUC(0-t) at 72 h.
Reply text: 3.33

* * *

Assay: MRT (0 to infinity) in male Beagle dog at 2 mg/kg,iv measured upto 24 hrs
Assay type: ADME, organism-based, Canis lupus familiaris
Conditions: in vivo
observable: MRT inf

Inquiry: I have this compound here, CC(=O)O[C@@]12CO[C@@H]1C[C@H](O)[C@@]1(C)C(=O)[C@H](O)C3=C(C)[C@@H](OC(=O)[C@H](OC(=O)CCC(=O)NCCCC[C@H](NC(=O)CC[C@@H](NC(=O)[C@H](C)NC(=O)/C=C/c4ccc(F)cc4Cl)C(N)=O)C(=O)O)[C@@H](NC(=O)OC(C)(C)C)c4ccccc4)C[C@@](O)([C@@H](OC(=O)c4ccccc4)[C@H]21)C3(C)C , and I need its recorded MRT inf.
Reply text: 13.1 min

* * *

Test: Prodrug conversion in mouse plasma implanted with mouse 4T1 cells assessed as Cmax of docetaxel at 4 mg/kg,iv measured upto 72 hrs
Format: ADME, organism-based
Set-up: dose 4 mg/kg, time < 72 hrs, route iv
Conditions: in vivo
observable: Cmax
Kindly report the value followed by its unit.

Inquiry: I have this compound here, CC(=O)O[C@@]12CO[C@@H]1C[C@H](O)[C@@]1(C)C(=O)[C@H](O)C3=C(C)[C@@H](OC(=O)[C@H](OC(=O)CCC(=O)NCCCC[C@H](NC(=O)CC[C@@H](NC(=O)[C@H](C)NC(=O)/C=C/c4ccc(F)cc4Cl)C(N)=O)C(=O)O)[C@@H](NC(=O)OC(C)(C)C)c4ccccc4)C[C@@](O)([C@@H](OC(=O)c4ccccc4)[C@H]21)C3(C)C , and I need its recorded Cmax.
Reply text: 43.3 µM

* * *

Assay: AUC (0-t) in rat at 2 mg/kg,iv measured upto 24 hrs
Assay type: ADME, organism-based
Parameters: dose 2 mg/kg, time < 24 hrs, route iv
Conditions: in vivo
observable: AUC(0-t) at 24 h (ng·h/mL)
Numeric only. Scale: ng·h/mL

Inquiry: I have this compound here, CC(=O)O[C@@]12CO[C@@H]1C[C@H](O)[C@@]1(C)C(=O)[C@H](O)C3=C(C)[C@@H](OC(=O)[C@H](OC(=O)CCC(=O)NCCCC[C@H](NC(=O)CC[C@@H](NC(=O)[C@H](C)NC(=O)/C=C/c4ccc(F)cc4Cl)C(N)=O)C(=O)O)[C@@H](NC(=O)OC(C)(C)C)c4ccccc4)C[C@@](O)([C@@H](OC(=O)c4ccccc4)[C@H]21)C3(C)C , and I need its recorded AUC(0-t) at 24 h.
Reply text: 5200

* * *

Test: Volume of distribution at steady state in rat at 8 mg/kg,iv measured upto 24 hrs
Format: ADME, organism-based
Details: in vivo, read-out: Vdss
observable: Vd (L/kg)
Numeric only. Scale: L/kg

Inquiry: I have this compound here, CC(=O)O[C@@]12CO[C@@H]1C[C@H](O)[C@@]1(C)C(=O)[C@H](O)C3=C(C)[C@@H](OC(=O)[C@H](OC(=O)CCC(=O)NCCCC[C@H](NC(=O)CC[C@@H](NC(=O)[C@H](C)NC(=O)/C=C/c4ccc(F)cc4Cl)C(N)=O)C(=O)O)[C@@H](NC(=O)OC(C)(C)C)c4ccccc4)C[C@@](O)([C@@H](OC(=O)c4ccccc4)[C@H]21)C3(C)C , and I need its recorded Vd.
Reply text: 0.096

* * *

Assay: AUC (0-t) in female rat at 8 mg/kg,iv measured upto 24 hrs
Format: ADME, organism-based
Parameters: dose 8 mg/kg, time < 24 hrs, route iv
Details: in vivo
observable: AUC(0-t) at 24 h (ng·h/mL)
Numeric only. Scale: ng·h/mL

Inquiry: I have this compound here, CC(=O)O[C@@]12CO[C@@H]1C[C@H](O)[C@@]1(C)C(=O)[C@H](O)C3=C(C)[C@@H](OC(=O)[C@H](OC(=O)CCC(=O)NCCCC[C@H](NC(=O)CC[C@@H](NC(=O)[C@H](C)NC(=O)/C=C/c4ccc(F)cc4Cl)C(N)=O)C(=O)O)[C@@H](NC(=O)OC(C)(C)C)c4ccccc4)C[C@@](O)([C@@H](OC(=O)c4ccccc4)[C@H]21)C3(C)C , and I need its recorded AUC(0-t) at 24 h.
Reply text: 39300

* * *

Assay: MRT (0 to infinity) in Beagle dog at 2 mg/kg,iv measured upto 24 hrs
Assay type: ADME, organism-based, Canis lupus familiaris
Conditions: in vivo
observable: MRT inf
Kindly report the value followed by its unit.

Inquiry: I have this compound here, CC(=O)O[C@@]12CO[C@@H]1C[C@H](O)[C@@]1(C)C(=O)[C@H](O)C3=C(C)[C@@H](OC(=O)[C@H](OC(=O)CCC(=O)NCCCC[C@H](NC(=O)CC[C@@H](NC(=O)[C@H](C)NC(=O)/C=C/c4ccc(F)cc4Cl)C(N)=O)C(=O)O)[C@@H](NC(=O)OC(C)(C)C)c4ccccc4)C[C@@](O)([C@@H](OC(=O)c4ccccc4)[C@H]21)C3(C)C , and I need its recorded MRT inf.
Reply text: 14.2 min

* * *

Test: Tmax in mouse plasma implanted with mouse 4T1 cells at 5.7 mg/kg,iv measured upto 72 hrs
Type: ADME, organism-based
observable: Tmax (min)
Numeric only. Scale: min

Inquiry: I have this molecule here, CC(=O)O[C@@]12CO[C@@H]1C[C@H](O)[C@@]1(C)C(=O)[C@H](O)C3=C(C)[C@@H](OC(=O)[C@H](O)[C@@H](NC(=O)OC(C)(C)C)c4ccccc4)C[C@@](O)([C@@H](OC(=O)c4ccccc4)[C@H]21)C3(C)C [DOCETAXEL ANHYDROUS] , and I need its recorded Tmax.
Reply text: 1.8

* * *

Assay: Clearance in male Beagle dog at 1 mg/kg,iv measured upto 24 hrs
Assay type: ADME, organism-based, Canis lupus familiaris
Conditions: in vivo
observable: clearance (mL/min/kg)
Numeric only. Scale: mL/min/kg

Inquiry: I have this compound here, CC(=O)O[C@@]12CO[C@@H]1C[C@H](O)[C@@]1(C)C(=O)[C@H](O)C3=C(C)[C@@H](OC(=O)[C@H](OC(=O)CCC(=O)NCCCC[C@H](NC(=O)CC[C@@H](NC(=O)[C@H](C)NC(=O)/C=C/c4ccc(F)cc4Cl)C(N)=O)C(=O)O)[C@@H](NC(=O)OC(C)(C)C)c4ccccc4)C[C@@](O)([C@@H](OC(=O)c4ccccc4)[C@H]21)C3(C)C , and I need its recorded clearance.
Reply text: 11.7

* * *

Experiment: Tmax in male Beagle dog at 4 mg/kg,iv measured upto 24 hrs
Assay type: ADME, organism-based, Canis lupus familiaris
Conditions: in vivo
observable: Tmax (min)
Numeric only. Scale: min

Inquiry: I have this molecule here, CC(=O)O[C@@]12CO[C@@H]1C[C@H](O)[C@@]1(C)C(=O)[C@H](O)C3=C(C)[C@@H](OC(=O)[C@H](OC(=O)CCC(=O)NCCCC[C@H](NC(=O)CC[C@@H](NC(=O)[C@H](C)NC(=O)/C=C/c4ccc(F)cc4Cl)C(N)=O)C(=O)O)[C@@H](NC(=O)OC(C)(C)C)c4ccccc4)C[C@@](O)([C@@H](OC(=O)c4ccccc4)[C@H]21)C3(C)C , and I need its recorded Tmax.
Reply text: 30

The measured values listed here are drawn from ChEMBL document CHEMBL5252546.
